test: Pharmacokinetics in SD rats; conditions: Sprague-Dawley, rat, in vivo, po, 10 mg/kg
readout: half-life
The reply must contain the numeric value and, after it, the unit.

Supply measured half-life of CS(=O)(=O)c1ccc(CC(=O)Nc2ccc(-c3ccc(C(O)(C(F)(F)F)C(F)(F)F)cc3F)cc2)cc1 [Example 1] in your reply.
8.67 h

---

Catalogue of AUC(0-t) readings, one per entry.
assay: Pharmacokinetics in SD rats; conditions: Sprague-Dawley, rat, in vivo, iv, 2 mg/kg
Express the reported value numerically, then name its unit.

O=C(Cc1ccccc1[N+](=O)[O-])Nc1ccc(-c2ccc(C(O)(C(F)(F)F)C(F)(F)F)cc2F)cc1 : 3330 ng·h/mL

# return recorded AUC(0-t) for entry "CS(=O)(=O)c1ccc(CC(=O)Nc2ccc(-c3ccc(C(O)(C(F)(F)F)C(F)(F)F)cc3F)cc2)cc1"
7660 ng·h/mL

---

target: RORγ (Homo sapiens (Human), UniProt P51449); experiment: Luciferase double reporter gene assay (Gal4-RORγLBD) in 293T cells; format: cell-based; conditions: 24 hours of incubation
Sequence (P51449 269-508): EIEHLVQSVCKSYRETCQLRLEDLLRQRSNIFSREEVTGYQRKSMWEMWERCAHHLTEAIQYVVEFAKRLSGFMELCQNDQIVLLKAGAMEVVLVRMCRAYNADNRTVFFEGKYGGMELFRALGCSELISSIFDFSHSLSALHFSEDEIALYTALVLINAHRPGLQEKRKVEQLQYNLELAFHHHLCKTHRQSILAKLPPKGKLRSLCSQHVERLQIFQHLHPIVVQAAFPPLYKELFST
Rule for this label: Satisfied means IC50 is less than 1 µM; Not satisfied means IC50 is at least 1 µM.

Please check: IC50 for "O=C(Cc1ccccc1[N+](=O)[O-])Nc1ccc(-c2ccc(C(O)(C(F)(F)F)C(F)(F)F)cc2F)cc1" , strictly under 1 µM or not?
Satisfied

Below 1 µM on IC50? Entry "Nc1ccccc1CC(=O)Nc1ccc(-c2ccc(C(O)(C(F)(F)F)C(F)(F)F)cc2F)cc1"
Satisfied

I wonder whether "CCCCC(=O)Nc1ccc(-c2ccc(C(O)(C(F)(F)F)C(F)(F)F)cc2F)cc1" has IC50 below 1 µM. Can you tell?
Not satisfied

---

test: Pharmacokinetics in SD rats; settings: Sprague-Dawley, rat, in vivo, po, 10 mg/kg
readout: Tmax (h)
API: value field is a number in h; no unit string.

Please give the documented Tmax of "O=C(Cc1ccccc1[N+](=O)[O-])Nc1ccc(-c2ccc(C(O)(C(F)(F)F)C(F)(F)F)cc2F)cc1"
8

---

assay: Pharmacokinetics in SD rats; details: Sprague-Dawley, rat, in vivo, iv, 2 mg/kg
readout: Tmax (min)
Give the number; min is assumed, so skip it.

// Input: "CS(=O)(=O)c1ccc(CC(=O)Nc2ccc(-c3ccc(C(O)(C(F)(F)F)C(F)(F)F)cc3F)cc2)cc1" . Output its Tmax only.
4.8

---

target: RORγ (Homo sapiens (Human), UniProt P51449); assay: Specificity luciferase reporter assay in 293T cells, RORγ; conditions: read-out: IC50 RORγ, reporter gene
// values below are reported pIC50
When answering, recall that pIC50 equals minus log10 of the concentration in mol/L, and write that number alone.

O=C(Cc1ccccc1[N+](=O)[O-])Nc1ccc(-c2ccc(C(O)(C(F)(F)F)C(F)(F)F)cc2F)cc1 [Example 4] : 6.72

Note: attention shifts to another entry.
Return pIC50 (reported value) for this molecule: CS(=O)(=O)c1ccc(CC(=O)Nc2ccc(-c3ccc(C(O)(C(F)(F)F)C(F)(F)F)cc3F)cc2)cc1 [Example 1]
6.92

---

tested on: H1975 (lung cancer cells); test: Cell-Titer GLO cell inhibition; type: cell-based; details: Homo sapiens, NCI-H1975
IC50 overview
Write the value in µM as a bare number.

CS(=O)(=O)c1ccc(CC(=O)Nc2ccc(-c3ccc(C(O)(C(F)(F)F)C(F)(F)F)cc3F)cc2)cc1 : 24

Then there is this compound:
Recall the reported IC50 of "CCS(=O)(=O)c1ccc(CC(=O)Nc2ccc(-c3ccc(C(O)(C(F)(F)F)C(F)(F)F)cc3F)cc2)cc1" on H1975 (lung cancer cells) and write it down.
16
